- Assay System: T1, LanCL1 Wild Type (human LanC-like protein 1) (human, UniProt O43813 1-399)
- T1 construct: LanC-like protein 1 (LanCL1), human; also called LanCL1 WT; WT-LanCL1; source: E. coli Rosetta 2 (DE3), purified (HisTrap Ni-NTA, PD-10 desalting)
- T1 sequence (O43813 whole entry): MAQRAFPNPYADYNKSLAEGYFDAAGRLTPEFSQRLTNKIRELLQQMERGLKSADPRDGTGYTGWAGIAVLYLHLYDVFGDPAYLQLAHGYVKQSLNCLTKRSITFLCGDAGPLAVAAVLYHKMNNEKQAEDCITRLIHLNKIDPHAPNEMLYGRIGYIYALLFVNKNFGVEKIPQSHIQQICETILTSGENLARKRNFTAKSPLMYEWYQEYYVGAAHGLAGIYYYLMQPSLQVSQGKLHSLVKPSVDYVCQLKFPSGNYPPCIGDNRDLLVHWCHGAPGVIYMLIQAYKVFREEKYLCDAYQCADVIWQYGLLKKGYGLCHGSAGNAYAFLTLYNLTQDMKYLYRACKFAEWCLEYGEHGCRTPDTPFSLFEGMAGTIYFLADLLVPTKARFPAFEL
- Assay Details: fluorescence polarisation; LanCL1 or variant titrated (highest 400 μM, 300 μM for some variants) against 20 nM fluorescein-peptide; 0.5 mM TCEP, 0.1 mM ZnCl2, 150 mM NaCl, 100 mM Tris pH 7.5, no GSH; 15 min incubation; triplicates
- Experimental Parameters: both partners purified
pKd: −log10 of the molar value. Ends that are not written are not given here.
Measure: pKd

{"columns": ["Binder", "Result Number"],
 "data": [
  ["DHTGFLAEYVATR (also: fluorescein label, end not given here, Numbers count on: the synthetic 13-mer; Its preparation is not described; also called Flu-Ala-Erk; fluorescein-Ala-Erk) [fluorescein-labeled Ala-Erk peptide]", 4.10]
]}
